Values compiled from the supplement of paper PMC3545927.

target: furin, P09958; experiment: furin cleavage Z-score vs untreated control; higher = more cleavage, active = 3.5 or more, inactive = 1 or less, 8 variable residues between constant flanks; settings: 15 min;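 further: purified furin at 1:10 enzyme:substrate in 50 mM HEPES pH 7.5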
Sequence (P09958 whole entry): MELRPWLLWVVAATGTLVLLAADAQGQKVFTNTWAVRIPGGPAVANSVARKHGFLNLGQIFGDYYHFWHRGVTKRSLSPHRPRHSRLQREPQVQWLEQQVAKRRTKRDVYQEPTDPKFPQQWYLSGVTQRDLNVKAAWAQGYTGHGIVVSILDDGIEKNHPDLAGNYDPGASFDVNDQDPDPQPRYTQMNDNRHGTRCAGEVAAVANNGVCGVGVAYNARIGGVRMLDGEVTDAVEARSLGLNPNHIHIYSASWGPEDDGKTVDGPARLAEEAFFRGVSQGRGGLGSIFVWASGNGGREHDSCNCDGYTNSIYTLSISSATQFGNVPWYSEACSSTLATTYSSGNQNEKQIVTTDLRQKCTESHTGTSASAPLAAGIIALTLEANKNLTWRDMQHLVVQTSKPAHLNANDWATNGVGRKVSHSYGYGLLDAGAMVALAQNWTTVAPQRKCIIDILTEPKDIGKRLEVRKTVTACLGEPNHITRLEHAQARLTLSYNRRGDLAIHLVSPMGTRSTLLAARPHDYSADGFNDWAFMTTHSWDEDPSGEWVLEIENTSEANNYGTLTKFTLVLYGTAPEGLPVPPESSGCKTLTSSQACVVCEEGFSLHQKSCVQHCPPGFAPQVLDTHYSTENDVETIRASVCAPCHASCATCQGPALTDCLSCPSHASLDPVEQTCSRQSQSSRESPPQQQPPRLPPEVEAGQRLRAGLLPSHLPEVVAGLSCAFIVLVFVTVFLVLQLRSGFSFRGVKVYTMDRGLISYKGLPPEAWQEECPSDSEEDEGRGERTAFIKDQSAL
This is one part of the list. How many sequences the whole screen found active is unknown.
Outcome codes: active, inactive

1. CADQLEQALDAGNASASA [HC1589]	inactive
2. CARSARRKRKAGNASASA [FS-1610]	active
3. CADVPRRKRKAGNASASA [FS-1316]	active
4. CARSACQRQKAGNASASA [HC1392]	inactive
